# Tested on: HL-60(TB) leukemia
# ASSAY_OVERVIEW: NCI-60 one-dose screen, 48 h (100 = growth as untreated, 0 = no growth, -100 = all killed)
# TEST_PARAMETERS: 10 µM unless noted
This is part of a sample that, as a whole, favours compounds with a hit. Of some 83,000 tested, about 20% had one in any assay.
Please mark 1 (yes) if the recorded growth is equal to or greater than 50%, and 0 (no) if it falls below.

Reference set, count: 5
Check the entry COc1cc(-c2ccc3ncnc(NCc4ccccc4)c3c2)cnc1OC : does growth equal or exceed 50%? 1 (yes)

Next: N#Cc1c(-c2ccccc2)cc(-c2c[nH]c3ccccc23)nc1-c1c[nH]c2ccccc12 1 (yes)

Next: CCOC(=O)c1sc(NCC(=O)Nc2cccc([N+](=O)[O-])c2)c(C(=O)OCC)c1C 0 (no)

Next: NC(N)=Nc1ccc(Oc2cccc(Nc3ccc(Cl)c(C(F)(F)F)c3)c2)cc1 0 (no)

Next: COc1ccc(NC(=O)[C@H](C)NC(=O)OC(C)(C)C)cc1C(=O)Nc1cccc(-c2cc(=O)c3c(OC)c(OC)c(OC)cc3o2)c1 0 (no)

***
Check the entry CC1=C2C(=C[C@@](C)(C=O)[C@@H]2O)C(=O)[C@](C)(O)C12CC2 : does growth equal or exceed 50%? 0 (no)

Next: O=C(c1ccc(O)cc1)[C@@H]1CN[C@@]2(C(=O)Nc3ccccc32)[C@H]1c1ccc(F)cc1 1 (yes)

Next: CCN(CC)CCn1c2ccc(O)cc2c2sc3cc(OC)ccc3c(=O)c21 0 (no)

Next: C/C(CC1(O)C(=O)Nc2ccccc21)=N\O (stereo not drawn) 1 (yes)

Next: CC1=C(CN(O)C(N)=O)C2=C(C)C3(CC3)[C@](C)(O)C(=O)C2=C1 0 (no)

Next: COc1ccc([C@@H]2[C@@H](O)C(=O)N2c2cc(OC)c(OC)c(OC)c2)cc1F 0 (no)

Next: CC(C)(C)Nc1nc2c(OCCc3ccccc3)cccn2c1-c1ccc([N+](=O)[O-])cc1 0 (no)

Next: COc1ccc2c(c1)Oc1nc(N)c(C#N)c(N)c1C2Sc1ccc(C)cc1 (stereo not drawn) 0 (no)

Next: O=C1CC(=O)N2CSCN(C(c3ccccc3)c3nc4ncncc4[nH]3)C2=N1 (stereo not drawn) 1 (yes)

Next: O=S(=O)(Oc1ccc(-c2nnc(Nc3ccccc3)s2)cc1)C(F)(F)C(F)(F)C(F)(F)C(F)(F)C(F)(F)C(F)(F)F 1 (yes)
